Origin of the recorded values: patent US20140135319A1

pIC50 values, listed per item
# targetUnderTest: human kinase Mps-1 (Homo sapiens, UniProt P33981)
# Construct: N-terminally GST-tagged human full length recombinant Mps-1 kinase; GST (N)
# assayDetails: Mps-1 kinase assay (TR-FRET)
# studyConditions: GST-tagged human full length recombinant Mps-1; 10 μM ATP; 1 μM peptide substrate; 60 min at 22° C.
# Description: The human kinase Mps-1 phosphorylates a biotinylated substrate peptide. Detection of the phosphorylated product is achieved by time-resolved fluorescence resonance energy transfer (TR-FRET) from Europium-labelled anti-phospho-Serine/Threonine antibody as donor to streptavidin labelled with cross-linked allophycocyanin (SA-XLent) as acceptor. Compounds are tested for their inhibition of the kinase activity. […]
pIC50: −log10 of the molar value.

compound | pIC50
Cc1cc(-c2cnc3c(NCCCC(C)O)nc(C4=CCOCC4)cn23)ccc1C(=O)NC1CC1 (stereo not shown) | 7.55
Cc1ccc(-c2cn3c(-c4ccc(C(=O)NC5CC5)cc4)cnc3c(NCC(C)C)n2)s1 | 7.26
CC(=O)NCCNc1nc(-c2ccncc2)cn2c(-c3ccc(C(=O)NC4CC4)cc3)cnc12 | 7.51
O=C(NC1CC1)c1ccc(-c2cnc3c(NCc4ccc(Cl)s4)nc(-c4ccncc4)cn23)cc1 | 8.64

* * *

# targetUnderTest: human kinase Mps-1 (Homo sapiens)
# Construct: N-terminally GST-tagged human full length recombinant Mps-1 kinase; GST (N)
# assayDetails: Mps-1 kinase assay (TR-FRET)
# studyConditions: GST-tagged human full length recombinant Mps-1; 10 μM ATP; 1 μM peptide substrate; 60 min at 22° C.
pIC50: −log10 of the molar value.
pIC50 values, listed per item

compound | pIC50
Cc1cc(-c2cnc3c(NCCC4CCN(C)CC4)nc(C4=CCOCC4)cn23)ccc1C(=O)NC1CC1 [Example 6-14] | 6.53
O=C(NC1CC1)c1ccc(-c2cnc3c(NCCCF)nc(-c4ccncc4)cn23)cc1 [Example 3-33] | 8.49
O=C(NC1CC1)c1ccc(-c2cnc3c(NCCC(F)(F)F)nc(-c4ccncc4)cn23)cc1Cl [Example 1-36] | 8.23
Cn1ccc(CNc2nc(-c3cccc(CC(N)=O)c3)cn3c(-c4ccc(C(=O)NC5CC5)cc4)cnc23)n1 [Example 1-94] | 8.31
CC(C)CNc1nc(-c2cccc(CC(=O)O)c2)cn2c(-c3ccc(C(=O)NC4CC4)cc3)cnc12 [Example 1-88] | 7.30
CC(C)CNc1nc(-c2ccnc3ccccc23)cn2c(-c3ccc(C(=O)NC4CC4)cc3)cnc12 [Example 1-4] | 8.48
Cc1ccc2sc(-c3cn4c(-c5ccc(C(=O)NC6CC6)cc5)cnc4c(NCC(C)C)n3)cc2c1 [Example 1-16] | 6.98
CC(C)CNc1nc(CCCO)cn2c(-c3ccc(C(=O)NC4CC4)cc3)cnc12 [Example 7-3] | 8.14

* * *

# targetUnderTest: human kinase Mps-1 (Homo sapiens, UniProt P33981)
# Construct: N-terminally GST-tagged human full length recombinant Mps-1 kinase; GST (N)
# assayDetails: Mps-1 kinase assay (TR-FRET)
# studyConditions: GST-tagged human full length recombinant Mps-1; 10 μM ATP; 1 μM peptide substrate; 60 min at 22° C.
# Method: The human kinase Mps-1 phosphorylates a biotinylated substrate peptide. Detection of the phosphorylated product is achieved by time-resolved fluorescence resonance energy transfer (TR-FRET) from Europium-labelled anti-phospho-Serine/Threonine antibody as donor to streptavidin labelled with cross-linked allophycocyanin (SA-XLent) as acceptor. Compounds are tested for their inhibition of the kinase activity. […]
IC50 strictly under 8 nM means T; at 8 nM or over means F.

compound | assignedCategory
O=C(NC1CC1)c1ccc(-c2cnc3c(NCCC(F)(F)F)nc(-c4ccn[nH]4)cn23)cc1F | F
COc1cc(C(=O)NC2CC2)ccc1-c1cnc2c(NCCCN)nc(-c3ccncc3)cn12 | F
Cc1cc(-c2cnc3c(NCC4CC4C)nc(-c4ccc(F)cc4)cn23)ccc1C(=O)NC1CC1 (centres unmarked) | F
O=C(NC1CC1)c1ccc(-c2cnc3c(NCc4c(F)cccc4F)nc(-c4ccncc4)cn23)cc1 | T
CC(C)CNc1nc(C(=O)NCCN2CCCCC2)cn2c(-c3ccc(C(=O)NC4CC4)cc3)cnc12 | F
CC(C)CNc1nc(-c2ccccc2)cn2c(-c3ccc(C(=O)NC4(C)CC4)cc3)cnc12 | F
CC(C)CNc1nc(-c2ccc3nccn3c2)cn2c(-c3ccc(C(=O)NC4CC4)cc3)cnc12 | T

* * *

# targetUnderTest: human kinase Mps-1 (Homo sapiens)
# Construct: N-terminally GST-tagged human full length recombinant Mps-1 kinase; GST (N)
# Sequence (P33981 1-857): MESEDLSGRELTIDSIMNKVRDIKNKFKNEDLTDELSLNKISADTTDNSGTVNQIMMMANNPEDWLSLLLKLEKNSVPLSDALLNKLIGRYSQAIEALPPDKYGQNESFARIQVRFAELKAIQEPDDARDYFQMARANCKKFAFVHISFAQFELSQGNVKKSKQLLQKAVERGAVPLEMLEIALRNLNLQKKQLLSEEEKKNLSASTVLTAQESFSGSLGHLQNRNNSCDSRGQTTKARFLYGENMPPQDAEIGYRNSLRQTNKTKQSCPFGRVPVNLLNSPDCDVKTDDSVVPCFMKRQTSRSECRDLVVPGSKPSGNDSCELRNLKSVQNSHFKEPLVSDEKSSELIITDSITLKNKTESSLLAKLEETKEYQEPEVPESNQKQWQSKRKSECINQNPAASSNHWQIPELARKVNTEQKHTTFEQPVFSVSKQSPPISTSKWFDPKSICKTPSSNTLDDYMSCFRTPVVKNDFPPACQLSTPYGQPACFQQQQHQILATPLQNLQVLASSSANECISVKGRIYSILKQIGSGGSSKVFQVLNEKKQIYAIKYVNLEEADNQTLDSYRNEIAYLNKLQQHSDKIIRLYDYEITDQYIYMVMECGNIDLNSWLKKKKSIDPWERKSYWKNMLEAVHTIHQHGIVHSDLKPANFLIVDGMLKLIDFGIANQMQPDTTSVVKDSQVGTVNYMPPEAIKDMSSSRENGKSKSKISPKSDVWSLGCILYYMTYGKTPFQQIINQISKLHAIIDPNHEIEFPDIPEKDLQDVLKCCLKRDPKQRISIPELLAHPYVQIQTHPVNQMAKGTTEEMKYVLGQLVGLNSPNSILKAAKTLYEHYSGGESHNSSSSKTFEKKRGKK
# assayDetails: Mps-1 kinase assay (TR-FRET)
# studyConditions: GST-tagged human full length recombinant Mps-1; 10 μM ATP; 1 μM peptide substrate; 60 min at 22° C.
pIC50: −log10 of the molar value.
Mark not met for pIC50 values under 8, and met for everything at or above.

compound | assignedCategory
Cc1cc(-c2cnc3c(NCC4CC(=O)N(C)C4)nc(C4=CCOCC4)cn23)ccc1C(=O)NC1CC1 (stereo not shown) [Example 6-15] | not met
CC(C)CNc1nc(-c2ccn[nH]2)cn2c(-c3ccc(C(=O)NC4CC4)c(Cl)c3)cnc12 [Example 1-34] | not met
O=C(NC1CC1)c1ccc(-c2cnc3c(NCC(F)F)nc(-c4ccncc4)cn23)cc1 [Example 3-26] | met
CC(C)CNc1nc(CCCN(C)C)cn2c(-c3ccc(C(=O)NC4CC4)cc3)cnc12 [Example 7-2] | not met
CC(C)CNc1nc(-c2cc3ccccc3s2)cn2c(-c3ccc(C(=O)NC4CC4)cc3)cnc12 [Example 1-12] | not met
O=C(NC1CC1)c1ccc(-c2cnc3c(NCC4CCCO4)nc(-c4ccoc4)cn23)cc1Cl (stereo not shown) [Example 1-43] | not met
Cn1cc(CNc2nc(-c3ccncc3)cn3c(-c4ccc(C(=O)NC5CC5)cc4)cnc23)cn1 [Example 3-29] | met
Cn1nccc1-c1cn2c(-c3ccc(C(=O)NC4CC4)cc3)cnc2c(NCC(C)(C)O)n1 [Example 1-97] | not met
Cn1nccc1CNc1nc(-c2ccn[nH]2)cn2c(-c3ccc(C(=O)NC4CC4)c(F)c3)cnc12 [Example 1-66] | not met

* * *

IC50 values, listed per item
# targetUnderTest: human kinase Mps-1 (Homo sapiens, UniProt P33981)
# Construct: N-terminally GST-tagged human full length recombinant Mps-1 kinase; GST (N)
# Sequence (P33981 1-857): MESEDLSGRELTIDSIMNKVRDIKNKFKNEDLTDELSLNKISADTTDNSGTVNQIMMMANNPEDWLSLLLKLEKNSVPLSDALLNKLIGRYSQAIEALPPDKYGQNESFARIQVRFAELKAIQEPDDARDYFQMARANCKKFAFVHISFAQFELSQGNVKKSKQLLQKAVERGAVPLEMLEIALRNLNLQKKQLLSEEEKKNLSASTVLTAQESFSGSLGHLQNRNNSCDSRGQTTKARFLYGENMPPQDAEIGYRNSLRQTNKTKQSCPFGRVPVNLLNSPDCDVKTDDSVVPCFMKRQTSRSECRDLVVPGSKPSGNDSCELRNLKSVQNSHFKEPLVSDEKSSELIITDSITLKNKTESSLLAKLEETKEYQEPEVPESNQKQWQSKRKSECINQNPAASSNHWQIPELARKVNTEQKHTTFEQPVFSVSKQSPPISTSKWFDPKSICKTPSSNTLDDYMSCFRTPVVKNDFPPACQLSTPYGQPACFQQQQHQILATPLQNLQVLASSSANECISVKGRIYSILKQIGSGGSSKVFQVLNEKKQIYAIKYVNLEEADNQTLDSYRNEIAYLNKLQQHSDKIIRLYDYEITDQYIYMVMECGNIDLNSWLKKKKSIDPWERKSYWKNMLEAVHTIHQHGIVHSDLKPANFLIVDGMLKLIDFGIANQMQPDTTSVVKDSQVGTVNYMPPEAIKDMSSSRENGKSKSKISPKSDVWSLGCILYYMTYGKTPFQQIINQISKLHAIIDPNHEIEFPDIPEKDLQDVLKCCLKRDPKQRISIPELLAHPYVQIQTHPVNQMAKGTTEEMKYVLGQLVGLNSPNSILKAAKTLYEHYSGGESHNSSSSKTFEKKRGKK
# assayDetails: Mps-1 kinase assay (TR-FRET)
# studyConditions: GST-tagged human full length recombinant Mps-1; 10 μM ATP; 1 μM peptide substrate; 60 min at 22° C.

molecule | targetUnderTest | resultUnit | IC50
O=C(NC1CC1)c1ccc(-c2cnc3c(NCC4CCCCO4)nc(-c4ccncc4)cn23)cc1 (stereo not shown) | human kinase Mps-1 (Homo sapiens, UniProt P33981) | nM | 3.5
CCCNc1nc(-c2ccncc2)cn2c(-c3ccc(C(=O)NC4CC4)cc3)cnc12 | human kinase Mps-1 (Homo sapiens, UniProt P33981) | nM | 2.1
CC(C)(O)CNc1nc(-c2ccn[nH]2)cn2c(-c3ccc(C(=O)NC4CC4)c(F)c3)cnc12 | human kinase Mps-1 (Homo sapiens, UniProt P33981) | nM | 101
O=C(NC1CC1)c1ccc(-c2cnc3c(NCCC(F)(F)F)nc(C4=CCOCC4)cn23)cc1F | human kinase Mps-1 (Homo sapiens, UniProt P33981) | nM | 8.7
Cc1cc(-c2cnc3c(NCCC(F)(F)F)nc(-c4cccn4C)cn23)ccc1C(=O)NC1CC1 | human kinase Mps-1 (Homo sapiens, UniProt P33981) | nM | 3.8
CCOc1ccc(-c2cn3c(-c4ccc(C(=O)NC5CC5)c(C)c4)cnc3c(NCCC(F)(F)F)n2)cn1 | human kinase Mps-1 (Homo sapiens, UniProt P33981) | nM | 9.9
O=C(NC1CC1)c1ccc(-c2cnc3c(NC[C@@H](O)CO)nc(-c4ccncc4)cn23)cc1 | human kinase Mps-1 (Homo sapiens, UniProt P33981) | nM | 19.3
